Target: T1, his-tagged human CDH6 extracellular region protein (hCDH6 ECD-his) (human, UniProt P55285 19-615)
T1 construct: also called Human CDH6-his; hCDH6-his; not shown: his tag
T1 sequence: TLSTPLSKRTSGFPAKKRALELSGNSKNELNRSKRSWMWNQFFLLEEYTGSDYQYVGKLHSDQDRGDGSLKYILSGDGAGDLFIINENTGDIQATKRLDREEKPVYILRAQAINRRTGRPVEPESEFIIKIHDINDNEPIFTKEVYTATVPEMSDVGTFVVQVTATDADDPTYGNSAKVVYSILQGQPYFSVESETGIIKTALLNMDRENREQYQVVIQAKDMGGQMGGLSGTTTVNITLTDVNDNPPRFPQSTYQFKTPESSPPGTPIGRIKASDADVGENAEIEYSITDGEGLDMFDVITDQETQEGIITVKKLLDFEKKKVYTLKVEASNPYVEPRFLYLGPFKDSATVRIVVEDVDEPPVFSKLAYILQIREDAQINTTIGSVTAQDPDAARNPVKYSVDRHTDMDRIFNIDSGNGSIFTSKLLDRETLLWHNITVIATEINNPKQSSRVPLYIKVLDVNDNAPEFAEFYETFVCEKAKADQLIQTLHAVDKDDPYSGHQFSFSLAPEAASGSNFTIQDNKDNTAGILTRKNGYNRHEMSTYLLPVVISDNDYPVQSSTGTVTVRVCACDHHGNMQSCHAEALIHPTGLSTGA
Assay: ELISA, coated antigen
quantity: EC50 (nM)
# unit: nM | format: bare number

Solved entries:
1) hCDH6-14-H1L1 (antibody, V domains shown, Humanized) VH: EVQLVQSGAEVKKPGASVKVSCKASGYTFTDNYINWVRQAPGQRLEWMGWIYPGTGNSYYNEKFKGRVTITVDTSASTAYMELSSLRSEDTAVYYCASSYGDSFDYWGQGTTVTVSS VL: DIQMTQSPSSLSASVGDRVTITCRASQDIRNYLNWYQQKPGKAFKLLISYTSRLHSGVPSRFSGSGSGTDFTFTISSLQPEDIATYYCQQYSQLPWTFGGGTKVEIK = 0.059
2) hCDH6-14-H5L3 (antibody, V domains shown, Humanized) VH: EVQLQQSGAEVKKPGASVKVSCKASGYTFTDNYINWVRQAPGQRLEWMGWIYPGTGNSYYNEKFKGRVTITVDTSASTAYMELSSLRSEDTAVYYCASSYGDSFDYWGQGTTVTVSS VL: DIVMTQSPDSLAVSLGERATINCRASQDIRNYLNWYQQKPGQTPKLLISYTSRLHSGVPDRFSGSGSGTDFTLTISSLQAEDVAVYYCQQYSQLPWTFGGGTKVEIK = 0.092

Lab book: EC50 of hCDH6-1-H2L2 (antibody, V domains shown, Humanized) VH: EVQLVQSGAEVKKPGSSVKVSCKASGYTFTNYWMHWVRQAPGQGLEWMGDIDPSHSETHYTQKFKDRVTITVDKSTSTAYMELSSLRSEDTAVYYCARGDLGRFDYWGQGTTVTVSS VL: DIVMTQSPDSLAVSLGERATINCRASESVSIHGTHLMHWYQQKSGQPPKLLIYAASNLESGVPDRFSGSGSETDFTLTISSLQAEDVAVYYCQQSFEDPWTFGGGTKVEIK noted as 0.026
